- Experimental protocol: chemical genetic growth profiling, strain panel (AID 1159580);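 note: tested at 20 µM; growth read once vehicle control cultures reached saturation at 30 °C; 1 = growth at the plate median or of vehicle wells; lower values mean less growth of the strain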
- Measurement parameters: S. cerevisiae deletion strains, growth OD, locus YIR030C, strain dcg1
About 2,000 (36%) of roughly 5,500 compounds were called active. About 18% were inconclusive and are not listed. Cut-off read from the data, not from the text of the source: active = normalized growth mostly below about 0.91 (no sharp cut-off); inconclusive = no clear call, values can overlap the other calls; inactive = mostly above about 0.92. Some of the results follow.
Hello, when you answer, please use one of the following outcomes: active, inactive

COC1(C)CCC2OC2(C)CCC2C1CC2(C)C (stereo unspecified) ... inactive
CN1CCN(CC(=O)N2c3ccccc3C(=O)Nc3cccnc32)CC1 ... inactive
CO[C@@]1(NC(=O)Cc2cccs2)C(=O)N2C(C(=O)O)=C(COC(N)=O)CS[C@@H]21 ... inactive
NC[C@H]1O[C@H](O[C@H]2C(O[C@@H]3O[C@H](CO)[C@@H](O)[C@H]3O)[C@@H](O)[C@H](N)C[C@@H]2N)[C@H](N)[C@@H](O)[C@@H]1O (stereo partly specified) ... inactive
COc1c2ccoc2cc2oc(C)cc(=O)c12 ... inactive
NC[C@H]1O[C@H](O[C@H]2[C@H](O)[C@@H](O[C@H]3O[C@H](CO)[C@@H](O)[C@H](N)[C@H]3O)[C@H](N)C[C@@H]2N)[C@H](N)C[C@@H]1O ... inactive

Would you mind telling me which call this test gave COc1cc2cc3c4cc(OC)c(OC)cc4cc[n+]3c(C)c2cc1OC ?
inactive

Would you mind telling me which call this test gave COc1ccc2c(=O)ccoc2c1 ?
inactive

Would you mind telling me which call this test gave COc1c2occc2c(OC)c2c(=O)cc(C)oc12 ?
inactive

Would you mind telling me which call this test gave Cc1ccc(N(CC2=NCCN2)c2cccc(O)c2)cc1 ?
inactive

Would you mind telling me which call this test gave CC(=O)OCC(=O)[C@@]1(O)CCC2C3CCC4=CC(=O)CC[C@]4(C)C3[C@@H](O)C[C@@]21C (stereo partly specified) ?
inactive

Would you mind telling me which call this test gave COc1c2c(cc3c1OCO3)C13C=C[C@H](OC)CC1N(C2)CC3O (stereo partly specified) ?
inactive

Would you mind telling me which call this test gave O=c1c(O)c(-c2ccc(O)c(O)c2)oc2cc(O)ccc12 ?
inactive

Would you mind telling me which call this test gave C[C@]12CCC(=O)C=C1CCC1C2[C@@H](O)C[C@@]2(C)C1CC[C@]2(O)C(=O)COC(=O)CCC(=O)O (stereo partly specified) ?
inactive

Would you mind telling me which call this test gave COc1cc(-c2oc3cc(O)ccc3c(=O)c2O)cc(OC)c1OC ?
inactive

Would you mind telling me which call this test gave C#C[C@]1(O)CCC2C3CCC4=Cc5oncc5C[C@]4(C)C3CC[C@@]21C (stereo partly specified) ?
active

Would you mind telling me which call this test gave O=c1[nH]cnc2c1ncn2C1O[C@H](CO)[C@@H](O)[C@H]1O (stereo partly specified) ?
inactive

Would you mind telling me which call this test gave NC(=O)NO ?
inactive

Would you mind telling me which call this test gave Cc1cc(C(C)(C)C)c(O)c(C)c1CC1=NCCN1 ?
inactive

Would you mind telling me which call this test gave C#CC1(O)CCC2C3CCC4=CC(=O)CCC4(C)C3CCC21C (stereo unspecified) ?
inactive

Would you mind telling me which call this test gave C[C@]12CCC(=O)C=C1CCC1C2C(=O)C[C@@]2(C)C1CC[C@]2(O)C(=O)CO (stereo partly specified) ?
inactive

----------
- Experimental protocol: chemical genetic growth profiling, strain panel (AID 1159580)
- Measurement parameters: S. cerevisiae deletion strains, growth OD, locus YHR142W, strain chs7
Out of some 5,500 compounds screened, about 2,000 (36%) were called active. Roughly 18% stayed inconclusive and do not appear here. Cut-off read from the data, not from the text of the source: active = normalized growth mostly below about 0.91 (no sharp cut-off); inconclusive = no clear call, values can overlap the other calls; inactive = mostly above about 0.92. This is one part of the list.
Hello, when you answer, please use one of the following outcomes: active, inactive

Cc1onc(-c2ccccc2Cl)c1C(=O)N[C@@H]1C(=O)N2[C@@H]1SC(C)(C)[C@@H]2C(=O)O ... inactive

Would you mind telling me which call this test gave COc1ccc(-c2oc3ccccc3c(=O)c2O)cc1OC ?
active

Would you mind telling me which call this test gave CN1CCN(CCCN2c3ccccc3Sc3ccc(C(F)(F)F)cc32)CC1 ?
active

Would you mind telling me which call this test gave Cc1onc(-c2ccccc2)c1C(=O)NC1C(=O)N2[C@@H]1SC(C)(C)[C@@H]2C(=O)O (stereo not given in full) ?
inactive

Would you mind telling me which call this test gave Cc1cc(=O)n(-c2ccccc2)n1C ?
inactive

----------
Each item that follows carries a reported normalized growth.
- Experimental protocol: chemical genetic growth profiling, strain panel (AID 1159580);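 note: tested at 20 µM; growth read once vehicle control cultures reached saturation at 30 °C; 1 = growth at the plate median or of vehicle wells; lower values mean less growth of the strain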
- Measurement parameters: S. cerevisiae deletion strains, growth OD, locus YOL078W, strain AVO1, active compounds read low
The campaign covered roughly 5,500 compounds. About 2,000 (36%) were called active. Inconclusive results (about 18%) are left out. The list shows a part of the results.
// print number alone

Below, 5 compounds whose answers are already recorded.
CSc1nnc(COc2ccc(C)c3c2CCC3)n1-c1ccccc1 ... 0.987
CC(=O)c1ccccc1C(=O)c1ccc(C(C)(C)C)cc1 ... 0.967
Clc1ccc(N/N=C\c2sccc2Oc2ccccc2)cc1 ... 0.97
N#C/C(=N/Nc1cccc(C(F)(F)F)c1)C(=O)c1csc(-c2cccnc2)n1 ... 0.955
O=c1c(-c2ccccc2)c(O)c2cccc3c4ccccc4n1c23 ... 0.123

Endpoint output: normalized growth of O=C(NNC(=S)Nc1ccc(Cl)cc1)c1ncc(C(F)(F)F)cc1Cl . Value?
0.972

Endpoint output: normalized growth of FC(F)(F)c1cc(-c2ccc(Cl)cc2)n[nH]1 . Value?
0.903

Endpoint output: normalized growth of CC(C)(C)c1ccc(C(=O)NNC(=S)Nc2ccc(Cl)cc2)cc1 . Value?
0.97

Endpoint output: normalized growth of CS/C(Nc1cccc(C(F)(F)F)c1)=C(/C#N)S(=O)(=O)c1ccc(Cl)cc1 . Value?
0.951

Endpoint output: normalized growth of O=c1c(-c2ccccc2)c(O)c2cccc3c4c(n1c23)CCCC4 . Value?
0.927

Endpoint output: normalized growth of O=C(c1cc2c(s1)-c1ccccc1CC2)N1CCN(Cc2ccccc2)CC1 . Value?
1.01

Endpoint output: normalized growth of O=C(Nc1cccnc1)c1cc2c(s1)-c1ccccc1CC2 . Value?
0.918

----------
- Experimental protocol: chemical genetic growth profiling, strain panel (AID 1159580);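 note: tested at 20 µM; growth read once vehicle control cultures reached saturation at 30 °C; 1 = growth at the plate median or of vehicle wells; lower values mean less growth of the strain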
- Measurement parameters: S. cerevisiae deletion strains, growth OD, locus YDR195W, strain ref2
Hit rate of the full screen: of about 5,500 compounds, about 2,000 (36%) were called active. Not shown: some 18% with an inconclusive outcome. Rule as the data show it: active = normalized growth mostly below about 0.91 (no sharp cut-off); inconclusive = no clear call, values can overlap the other calls; inactive = mostly above about 0.92. The list shows a part of the results.
Hello, when you answer, please use one of the following outcomes: active, inactive

Past entries and their recorded results:
CCOc1ccc(C(=O)c2cc(O)c(OC)c(OC)c2O)cc1 ... inactive
CCOc1ccc(C(=O)c2ccc(O)c(O)c2O)cc1 ... inactive
COc1c2occc2c(OC)c2c(=O)cc(C)oc12 ... inactive
CC(=O)Oc1cccc2c1C(=O)c1c(OC(C)=O)cc(C(=O)O)cc1C2=O ... inactive

Attention now shifts to the item below.
Would you mind telling me which call this test gave COC(=O)C[C@H]1C(C)(C)[C@@H](O)[C@@H]2CC3=C4C=C(OC)O[C@@H](c5ccoc5)[C@]4(C)CCC3[C@@]1(C)C2=O (stereo partly specified) ?
inactive

----------
- Experimental protocol: chemical genetic growth profiling, strain panel (AID 1159580);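 note: tested at 20 µM; growth read once vehicle control cultures reached saturation at 30 °C; 1 = growth at the plate median or of vehicle wells; lower values mean less growth of the strain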
- Measurement parameters: S. cerevisiae deletion strains, growth OD, locus YHR200W, strain rpn10, active compounds read low
In all, about 5,500 compounds went through this assay and about 2,000 (36%) were called active. Another 18% or so got no clear call; they are omitted. The list shows a part of the results.
Each item that follows carries a reported normalized growth.
// print number alone

Below, 8 compounds whose answers are already recorded.
COc1ccc([C@H]2COc3c(ccc(O)c3OC)C2)c(OC)c1O ... 0.967
CC(=O)O[C@@H]1CC[C@]2(C)C3CC[C@]4(C)C(=O)CCC4C3CC[C@H]2C1 (stereo partly specified) ... 0.978
CN[C@@H]1[C@@H](O[C@H]2O[C@H](CO)[C@@H](N)[C@H](O)[C@H]2O)O[C@H]2C[C@@H](N)[C@H](O[C@H]3[C@H](O)[C@@H](O)[C@H](N)C[C@@H]3N)O[C@@H]2[C@@H]1O ... 1
C#CC1(O)CCC2C3CCC4=CC(=O)CCC4(C)C3CCC21C (stereo unspecified) ... 0.986
NC[C@H]1O[C@H](O[C@H]2C(O[C@@H]3O[C@H](CO)[C@@H](O)[C@H]3O)[C@@H](O)[C@H](N)C[C@@H]2N)[C@H](N)[C@@H](O)[C@@H]1O (stereo partly specified) ... 0.989
CCOc1ccc(C(=O)c2ccc(O)c(O)c2O)cc1 ... 0.886
Cc1onc(-c2c(Cl)cccc2Cl)c1C(=O)N[C@@H]1C(=O)N2[C@@H]1SC(C)(C)[C@@H]2C(=O)O ... 0.991
COc1cc(O)cc(OC)c1OC ... 1.01

Endpoint output: normalized growth of NC(=O)N1c2ccccc2C=Cc2ccccc21 . Value?
0.995

Endpoint output: normalized growth of CC(=O)CC1CCCCN1 (stereo unspecified) . Value?
0.982

Endpoint output: normalized growth of Cc1onc(-c2ccccc2)c1C(=O)NC1C(=O)N2[C@@H]1SC(C)(C)[C@@H]2C(=O)O (stereo partly specified) . Value?
1.02

Endpoint output: normalized growth of CC(=O)OCC(=O)[C@@]1(O)CCC2C3CCC4=CC(=O)CC[C@]4(C)C3[C@@H](O)C[C@@]21C (stereo partly specified) . Value?
1

Endpoint output: normalized growth of COP(=O)(OC)OC(Br)C(Cl)(Cl)Br (stereo unspecified) . Value?
0.997

Endpoint output: normalized growth of CO[C@@]1(NC(=O)Cc2cccs2)C(=O)N2C(C(=O)O)=C(COC(N)=O)CS[C@@H]21 . Value?
0.994
